Experiment: basal RPMI8226 mitochondrial membrane potential changes, profiling panel, cell-based, JC-1 fluorescence, 24 h, 100 nL compound (AID 1169); further: test concentration not given here
Settings: RPMI8226 myeloma, JC-1 mitochondrial potential fluorescence, higher = more signal
parameter_measured: z-score
Answers are plain numbers.

compound: C=CCOC(=O)[C@H]1[C@@H]2C(=O)O[C@@H](c3ccccc3)[C@@H](c3ccccc3)N2[C@@H](c2ccc(OCCOC(=O)[C@H]3C[C@H]4C(=O)N[C@@H](CCCCNC(C)=O)C(=O)N4[C@H]3c3ccc(O)cc3)cc2)[C@]12C(=O)Nc1ccc(I)cc12
z-score: -0.538
//
compound: CC(C)c1ccc(NN2C(C(O)c3ccc(B(O)O)cc3)C=CC3C(=O)N(c4ccccc4)C(=O)C32)cc1 (centres undefined)
z-score: -0.894
//
compound: COC(=O)[C@@]1(Cc2ccc(F)cc2)[C@H]2c3cc(C(=O)N(C)C)n(Cc4ccc(Cl)c(C(F)(F)F)c4)c3C[C@H]2CN1C(=O)c1ccccc1
z-score: -0.854
//
compound: O=C1N(Cc2ccccc2)c2ccccc2[C@@H]2OC(c3ccc(OCCCO)cc3)=N[C@]12CCS(=O)(=O)c1ccccc1
z-score: -0.669
//
compound: CCc1cccc(NC(=O)O[C@H]2[C@H](OC(=O)Nc3ccccc3-c3ccccc3)[C@@H](OC(=O)Nc3ccccc3-c3ccccc3)[C@@H](OC)O[C@@H]2CO)c1
z-score: -1.1
//
compound: C=C[C@H](CO)NS(=O)(=O)c1ccc(Br)cc1
z-score: 0.3
//
compound: O=C(NCCN1CCOCC1)C1N=C(c2ccc(OCCCO)cc2)N(c2ccccc2)O1 (centres undefined)
z-score: -1.28
//
compound: COCCOC(=O)N1C(=O)[C@@]2(c3cc(C#CCC(C(=O)OC)C(=O)OC)ccc31)[C@H](c1ccccc1OCCO)N1[C@H](c3ccccc3)[C@H](c3ccccc3)OC(=O)[C@H]1[C@@H]2C(=O)N1CCN(c2ncccn2)CC1
z-score: -0.78

Field: z-score. Fill in for each record below.
1. CO[C@H]1O[C@H](CO)[C@@H](OC(=O)Nc2cccc(F)c2)[C@H](OC(=O)Nc2ccccc2)[C@@H]1OC(=O)Nc1ccccc1
2. COCCOC(=O)N1C(=O)[C@@]2(c3cc(C#Cc4ccc(OC)cc4)ccc31)[C@H](c1ccc(O)cc1)N1[C@H](c3ccccc3)[C@H](c3ccccc3)OC(=O)[C@H]1[C@@H]2C(=O)N1CCc2cc(OC)c(OC)cc2C1
3. C#C[C@H](O[Si](C#Cc1ccc(Oc2ccccc2)cc1)(C(C)C)C(C)C)c1ccccc1
4. COc1cc(Br)cc(C(O)C2C=CC3C(=O)N(C)C(=O)C3N2N2CCCCC2)c1OC (centres undefined)
5. C=CC1(C(=O)OC)CC=C(C(=O)OC)CC1 (centres undefined)
6. Cc1ccc(S[C@]2(C(=O)NCCCN(C)C)CC(=O)N(Cc3cc(C(F)(F)F)cc(C(F)(F)F)c3)[C@@H]2c2ccc(CO)cc2I)cc1

1: -1.22; 2: 0.188; 3: -0.836; 4: 0.672; 5: -0.093; 6: -0.442

====

Assay: A549 cell viability effects, profiling panel, calcein-AM fluorescence, 48 h, basal (AID 1162); further: test concentration not given here
Conditions: higher = more signal
parameter_measured: z-score
Give bare numbers.

Field: z-score. Fill in for each record below.
1. C=C[C@@H](COC(=O)OC(C)(C)C)N(Cc1ccc(OC)cc1)S(=O)(=O)c1ccc(Br)cc1
2. C=C(CCCC)/C(=C/C[C@@H](OC(C)=O)c1ccc(OCCO)cc1)c1cnc2ccccc2c1
3. COC(=O)[C@@]1(Cc2ccccc2)[C@H]2c3cc(C(=O)N(C)C)n(Cc4ccsc4Br)c3C[C@H]2CN1C(=O)c1ccccc1
4. CC(C)C(CO)N1C(=O)[C@@H]2C3C(=O)OCCC/C=C\[C@H]3OC23C=CCN(CCN2CCOCC2)C(=O)[C@@H]13 (some centres undefined)

1. 1.39
2. 2.57
3. 0.209
4. 1.12

====

Test: anti-His antibody binders, primary screen, artefact control for SMM control protein annotation, biochemical, small-molecule microarray, 635 nm fluorescence (AID 1128);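 further: score merges feature fluorescence with signal-to-noise for each printed compound spot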
Details: anti-His Alexa647 antibody binding, higher = more signal
Record form. Attribute: composite z-score. Fill in for each entry.
One number for each entry.

compound: CC(C)C(=C=CC[C@H](O)c1ccc(OCCO)cc1)CCO
numeric_result: 1.07
//
compound: NC(=O)[C@@H]1[C@H]2C(=O)O[C@H](c3ccccc3)[C@H](c3ccccc3)N2[C@H](c2ccc(O)cc2)[C@@]12C(=O)Nc1ccccc12
numeric_result: -0.393
//
compound: O=C(c1ccccc1)N1C(=O)[C@@]2(Cc3ccccc31)N=C(c1ccc(OCCCO)cc1)O[C@H]2c1ccccc1
numeric_result: 1.39
//
compound: CCCC[C@H]1OB(O)C[C@H]2C1=C(COC)Cn1c(=O)n(-c3ccccc3)c(=O)n12
numeric_result: -0.152
//
compound: C[C@H]1C2[C@H](Cc3ccccc3)NC(=O)[C@]23C(=O)N[C@H](Cc2ccccc2)C(=O)N2CCC[C@H]2C(=O)NC/C=C\C/C=C/C3[C@@H]2O[C@]12C (stereo not given in full)
numeric_result: 0.102

Field: composite z-score. Fill in for each record below.
1. COCCOC(=O)N1C(=O)[C@@]2(c3cc(C#Cc4ccc(OC)cc4)ccc31)[C@H](c1ccccc1OCCO)N1[C@H](c3ccccc3)[C@H](c3ccccc3)OC(=O)[C@H]1[C@@H]2C(=O)NC[C@H](O)c1ccccc1
2. CC(C)OC(=O)C=C1C[C@@H](c2ccccn2)O[C@@H](c2ccccn2)O1
3. C=CCNC(=O)[C@H]1[C@@H]2C(=O)O[C@@H](c3ccccc3)[C@@H](c3ccccc3)N2[C@@H](c2ccccc2OCCO)[C@]12C(=O)Nc1ccc(C#CCCO)cc12
4. CC(=O)NCCCC[C@@H]1NC(=O)[C@H]2C[C@@H](C(=O)NCCCCCCNC(=O)CS)[C@@H](c3ccc(O)cc3)N2C1=O
5. CC(C)NC(=O)[C@@]1(C)c2ccccc2C(=O)N(Cc2cc(C(F)(F)F)cc(C(F)(F)F)c2)[C@H]1c1ccc(CO)cc1
6. COC(=O)[C@@]1(Cc2ccc(OC)cc2)[C@H]2c3cc(C(=O)N(C)C)n(C)c3C[C@H]2CN1C(=O)c1ccccc1

1: 0.992; 2: 0.772; 3: 1.12; 4: 2.48; 5: -0.229; 6: 0.392

Field: composite z-score. Fill in for each record below.
1. COCCCNC(=O)[C@@]1(C)c2ccccc2C(=O)N(C(C)C)[C@H]1c1ccc(CO)cc1
2. COc1ccccc1CN1C(=O)c2ccccc2[C@@H](C(=O)NC2CC2)[C@@H]1c1ccc(CO)cc1
3. CCCCCCc1nc(-c2cc(C)c(OC)c(C)c2)cc2c1[Si](C(C)C)(C(C)C)OC2
4. CCCCCCc1nc(-c2ccc(OC)nc2)cc2c1[Si](C(C)C)(C(C)C)O[C@H]2c1ccccc1

1: 1.42; 2: 2.77; 3: -0.164; 4: -0.133

====

Biological target: NADPH oxidase 5 (Homo sapiens) (UniProt Q96PH1)
Sequence (Q96PH1 whole entry, looked up): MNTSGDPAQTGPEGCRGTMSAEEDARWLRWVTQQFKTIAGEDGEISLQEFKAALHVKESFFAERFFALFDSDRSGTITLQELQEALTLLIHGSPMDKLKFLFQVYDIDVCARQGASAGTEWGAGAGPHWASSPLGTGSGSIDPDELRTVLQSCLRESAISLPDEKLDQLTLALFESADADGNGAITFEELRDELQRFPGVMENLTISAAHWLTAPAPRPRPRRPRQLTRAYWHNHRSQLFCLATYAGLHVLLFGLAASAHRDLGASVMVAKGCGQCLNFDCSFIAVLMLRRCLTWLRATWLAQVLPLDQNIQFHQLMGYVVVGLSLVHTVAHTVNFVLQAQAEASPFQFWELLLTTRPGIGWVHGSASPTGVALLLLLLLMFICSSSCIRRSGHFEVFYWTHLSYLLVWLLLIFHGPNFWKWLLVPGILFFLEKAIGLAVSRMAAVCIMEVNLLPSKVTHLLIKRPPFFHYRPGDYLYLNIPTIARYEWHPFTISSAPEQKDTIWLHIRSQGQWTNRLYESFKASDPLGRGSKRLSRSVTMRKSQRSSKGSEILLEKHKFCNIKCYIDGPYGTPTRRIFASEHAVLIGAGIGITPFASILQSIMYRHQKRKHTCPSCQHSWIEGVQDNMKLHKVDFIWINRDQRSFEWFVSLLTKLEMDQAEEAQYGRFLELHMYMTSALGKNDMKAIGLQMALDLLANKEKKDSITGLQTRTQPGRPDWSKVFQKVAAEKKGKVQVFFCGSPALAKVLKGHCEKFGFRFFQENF
Test: NOX5-dependent H2O2 signal modulators, primary screen, NOX inhibitor project, cell-based, HEK293-NOX5, Amplex Red fluorescence (AID 1161)
Details: HEK293-NOX5, ionomycin, 45 min, higher = more signal
Classification by z-score follows these ranges: bottom bin: < -0.07; middle bin: ≥ -0.07 and < 0.6; top bin: ≥ 0.6

compound: [N-]=[N+]=Nc1ccccc1[C@H]1OC(c2ccc(OCCCO)cc2)=N[C@@]1(CCS(=O)(=O)c1ccccc1)C(=O)NCC(O)CO (some centres undefined)
class_label: bottom bin
--
compound: C[C@@]1([C@@H](NC(=O)c2ccc(-c3ccccc3)cc2)c2ccc(Cl)cc2)C[C@H]1C1CCCCC1
class_label: top bin
--
compound: CCOC(=O)C[C@H]1[C@H](OC(=O)c2ccccc2-c2ccccc2)[C@@H](NC(=O)CC(C)C)c2cc(OCCCO)ccc2N1C(=O)Cc1ccc(OC)cc1
class_label: bottom bin
--
compound: COC(=O)[C@@]1(Cc2ccccc2)[C@H]2c3cc(C(=O)N(C)C)n(Cc4ccsc4Br)c3C[C@H]2CN1C(=O)c1ccccc1
class_label: top bin
--
compound: COC(=O)[C@@]1(Cc2ccc(OC)cc2)[C@H]2c3cc(C(=O)N4CCCC4)n(Cc4ccc(C)c(F)c4F)c3C[C@H]2CN1C(=O)c1ccccc1
class_label: bottom bin
--
compound: CC1CC/C=C\[C@H]2OC34C=CCN(C(C)(C)C)C(=O)[C@H]3N(C(C)CO)C(=O)[C@@H]4C2C(=O)O1 (some centres undefined)
class_label: top bin
--
compound: COc1cc2c(cc1OC)CN(C(=O)[C@H]1[C@@H]3C(=O)O[C@@H](c4ccccc4)[C@@H](c4ccccc4)N3[C@@H](c3ccc(O)cc3)[C@]13C(=O)Nc1ccc(C#CCCO)cc13)CC2
class_label: top bin
--
compound: COc1cc2c(cc1OC)CN(C(=O)[C@@H]1[C@H]3C(=O)O[C@H](c4ccccc4)[C@H](c4ccccc4)N3[C@H](c3ccccc3OCCO)[C@@]13C(=O)Nc1ccc(C#CCCO)cc13)CC2
class_label: middle bin
--
compound: C=C(CCCC)C(=O)CC[C@@H](OC(=O)c1ccccc1-c1ccccc1C(=O)O)c1ccc(OCCO)cc1
class_label: bottom bin
--
compound: CCCC[C@H]1OB(O)C[C@H]2C1=C(COC)Cn1c(=O)n(-c3ccccc3)c(=O)n12
class_label: middle bin

State the band of COc1ccc(CCNC(=O)[C@@]2(Sc3ccc(C)cc3)CC(=O)N(C3Cc4ccccc4C3)[C@@H]2c2ccc(CO)cc2I)cc1 top bin

State the band of O=C(NCCN1CCOCC1)[C@@H]1c2ccccc2C(=O)N(C2CCCCC2)[C@H]1c1ccc(CO)cc1 middle bin

Cited source for all entries: PubChem BioAssay
